Recorded values, source the nanobody polyreactivity screen of Harvey et al. (2022).

Assay: yeast display, Sf9 membrane polyspecificity reagent, FACS + sequencing; frameworks hold sequencing errors
MEASURED_ENDPOINT: polyreactivity (PSR sort gate)

Example entries begin here.
# ORDERED_RESIDUES, polyreactivity (PSR sort gate)
records = [
    ("QVQLVESGGGLVQAGGSLRLSCAASGRTFDWYAMGWYRQAPGKERELVAVITGRGGSTYYADSVKGRFTISRDNAKNTVYLQMNSLKPEDTAVYYCAVDRLRYRLGFGFKFDYWGQGTQVTVSS", "low polyreactivity"),
    ("QVHLVESGGGIVQAGLSLRLSCAASGRTFVVNAMGWYRQAPGKERELVAAISYSGGRTYYADSVKGRFTISRDIAKNTVYLKMNSLKPEDTAVYYCAAQSRYGGKFYYWGQGTQVTVSS", "high polyreactivity"),
    ("QVQLVESGGGLVQAGGSLRLSCAASGFTFIYYAMGWYRQAPGTERELVAAISTSGDSTYYADSVKGRFTISRDNAKNSVYLQMNSLKPEDTAVYYCNADWYPYLHEYDYWGQGTQVTVSS", "low polyreactivity"),
    ("QVQLVESVGGLVQAGGSLRLSCAASGFIYGWNAMGWYRQAPVKERELVASIRSSGGTTYADSVKGRFTISRDNAKNTVYLQMNSLKAEDNAVYYCARRVLGLLELDYWGQGTQVTVSS", "low polyreactivity"),
    ("QVQLVESGGGLVQAGGSLRLSCAASGYMFGGYAMGWYRQAPGKAREFVAAISDISGSTYYADSVKGRFTISRDNAKNTVYLQMNSLKPEDTAVYYGGHTSTADEDYWGQGTQVTVSS", "low polyreactivity"),
    ("QVQLVESGGGLVQAGGSLRLICAASGLTFRVYTMGWYRQAPGQERELVASISRSGASTYYADSVKGRFTISRDNAKNTVYLQMNSLKPEDTAVYYCNAVTSWPRRDFDYWGQGTQVTVSS", "high polyreactivity"),
    ("QVQLVESGGGLVQAGGSLRLSCAASGFILYVNAMGWYRQAPGKERELVAGITSSGTSTYADSVKGRFTISRDNAKNTVYLQMNSLKPEDTAVYYCAALRRPYGARDYDYWGQGTQVTVSS", "low polyreactivity"),
    ("QVQLVESGGGLVQAVGSLRLSCAASGRTFRTYTMGWYRQAPGKERELVAAISRGGSTNYADSLKGRFTISRDNAKNTVYLQMNSLKPEDTAVYYCNAKASFWSPYDYWGQGTQVTVSS", "high polyreactivity"),
    ("QVQLVESGGCLVQAGGSLRLSCAATGRIFKRYVMGWYRQAPGKERELVAAISQRGGSTNYADSVKGRFTISRDNAKNTVYLQMNSLKPEDTAVYYCAAGFFSRYDYWGQGTQVTVSS", "high polyreactivity"),
    ("QVQLVESGGGLVQAGGSLRLSCAASGRTFNSYAMGWYRQAPGKEREFVASITFSTGRTYYADSVKGRFTISRDNAKNTVYLQMNSLKPEDTAVYYCNVRFVTGYRYRYGDDYWGQGTQVTVSS", "low polyreactivity"),
]

Input QVQLVESVGGLVQAGGSLRLICAASGSIFSRYAMGWYRQAPGKEREFVARITQRGGSTYYADSVKGRFTISRDNAKNTVYLQRQSLKPEDTAVYYCNADHYRRLLAEDYWGQGTQVTVSS , output reported polyreactivity (PSR sort gate).
low polyreactivity
